Biological target: T1, human myostatin (mature, recombinant; R&D Systems) (human, UniProt O14793 267-375)
T1 construct: biotinylated in the mRNA display selection; also called GDF-8; mature myostatin
T1 sequence: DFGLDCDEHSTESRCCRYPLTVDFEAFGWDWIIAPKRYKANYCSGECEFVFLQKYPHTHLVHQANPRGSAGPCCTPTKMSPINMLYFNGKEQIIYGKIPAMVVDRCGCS
Test: competitive HTRF (1889E01/myostatin/ActRIIb-Fc sandwich)
Excerpt: An HTRF assay was used to measure the binding affinities of anti-myostatin Adnectins to myostatin. […] The Eu-W 1024 labeled Streptavidin is used to bind biotinylated 1889E01. […] In the presence of a competitive Adnectin, the HTRF signal decreases.
PROPERTY: pIC50
Note: pIC50 values are expressed as the negative base-10 logarithm of concentration in M.

BINDER	pIC50
3146_A08 (designed binder) MGVSDVPRDLEVVAATPTSLLISWSLPNPGNAHYYRITYGETGGNSPVQEFTVPGRGVTATISGLKPGVDYTITVYAVTVTDTGFITYKPISINYRTEIDKPSQHHHHHH	9.59

q: Tell us which pIC50 value is on record for ATI-1339 [40K 4-branch PEG] (designed binder, 40K 4-branch PEG on the Cys of the EGSGC tail, cysteine mutant of 2987_H07) MGVSDVPRDLEVVAATPTSLLISWTLPHAGRAHYYRITYGETGGNSPVQEFTVPGRGVTATISGLKPGVDYTITVYAVTVTTTKVIHYKPISINYRTEGSGCHHHHHH
a: 9.55

q: Tell me pIC50 reported for 3008_D04 (designed binder) MGVSDVPRDLEVVAATPTSLLISWSLPHNGVAHYYRITYGETGGNSPVQEFTVPGRGVTATISGLKPGVDYTITVYAVTVTREEVISYKPISINYRTEIDKPSQHHHHHH
a: 9.85

q: Complete the entry with pIC50 for 3007_C09 (designed binder) MGVSDVPRDLEVVAATPTSLLISWSLPHRGVANYYRITYGETGGNSPVQEFTVPGRGVTATISGLKPGVDYTITVYAVTLTGANVIIYKPISINYRTEIDKPSQHHHHHH
a: 9.85

q: Item ATI-1341 [20K Bis-PEG] (designed binder, two Adnectins joined through their tail Cys to the two ends of a 20 kDa bis-PEG, bivalent PEGylated form of the 2987_H07 cysteine mutant) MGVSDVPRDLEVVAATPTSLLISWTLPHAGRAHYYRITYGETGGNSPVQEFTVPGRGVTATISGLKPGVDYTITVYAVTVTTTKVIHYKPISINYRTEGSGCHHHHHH : provide pIC50
a: 9.89

q: Specify measured pIC50 for ATI-1266 [40K 2-branch PEG] (designed binder, 40K 2-branch PEG on the Cys of the EGSGC tail, cysteine mutant of 2525_D02) MGVSDVPRDLEVVAATPTSLLISWTLPHAGRAHYYRITYGETGGNSPVQEFTVPGRGVTATISGLKPGVDYTITVYAVTVTTTSVILYKPISINYRTEGSGCHHHHHH .
a: 9.68

q: Give reported pIC50 value for 3116_A07 (designed binder) MGVSDVPRDLEVVAATPTSLLISWDAPKGLARYYRITYGETGGNSPVQEFTVVGRGNTATISGLKPGVDYTITVYAVTIFRDGPVTWDPISINYRTEIDKPSQHHHHHH
a: 9.96

q: Identify the reported pIC50 for the following entry. ATI-1278 [40K 2-branch PEG] (designed binder, 40K 2-branch PEG on the Cys of the EGSGC tail, cysteine mutant of 2525_D05) MGVSDVPRDLEVVAATPTSLLISWSLPYAGHLNYYRITYGETGGNSPVQEFTVPGRGVTATISGLKPGVDYTITVYAVTLTKSQLIHYMPISINYRTEGSGCHHHHHH
a: 9.27

q: Please report the measured pIC50 for ATI-1338 [40K 2-branch PEG] (designed binder, 40K 2-branch PEG on the Cys of the EGSGC tail, cysteine mutant of 2987_H07) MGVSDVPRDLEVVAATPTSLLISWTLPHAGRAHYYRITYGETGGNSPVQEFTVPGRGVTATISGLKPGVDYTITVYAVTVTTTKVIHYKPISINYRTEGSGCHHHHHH
a: 9.62

q: Given the binder ATI-1340 [N-ethylmaleimide] (designed binder, N-ethylmaleimide on the Cys of the EGSGC tail, cysteine mutant of 2987_H07) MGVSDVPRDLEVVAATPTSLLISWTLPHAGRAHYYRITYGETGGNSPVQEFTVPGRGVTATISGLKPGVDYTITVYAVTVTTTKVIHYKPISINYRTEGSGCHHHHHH , write its reported pIC50.
a: 9.80

q: Name the recorded pIC50 of the item 3116_A06 (designed binder, also called WT parent) MGVSDVPRDLEVVAATPTSLLISWSLPHQGKANYYRITYGETGGNSPVQEFTVPGRGVTATISGLKPGVDYTITVYAVTVTDTGYLKYKPISINYRTEIDKPSQHHHHHH in your answer.
a: 9.82

q: # return recorded pIC50 for input 3007_B08 (designed binder) MGVSDVPRDLEVVAATPTSLLISWSLPTPGLAHYYRITYGETGGNSPVQEFTVPGRGVTATISGLKPGVDYTITVYAVTVTHHGVIGYKPISINYRTEIDKPSQHHHHHH
a: 9.85
